# test target: D(2) dopamine receptor (Homo sapiens)
# experimental details: HTS Assay for Allosteric Agonists of the Human D2 Dopamine Receptor: Primary Screen for Agonists; also: 0% is about no effect
# condition: HEK293 T-REx D2 cells, calcium flux agonist mode; at 2 µM; stronger effect = higher value
Screen size: about 340,000 compounds; about 1,800 (0.53%) were called active. Shown is part of a subset that was picked to be rich in actives.
I'd appreciate it if you could supply activation values for the items below.

Solved entries:
O=C(CCN1CCN(c2ccccc2)CC1)NNC(=S)Nc1ccccc1 | 56.1% (active)
Oc1ccc(CN2CCN(c3ncccn3)CC2)cc1 | 84.4% (active)
CCS(=O)(=O)N1CCC(N2CCN(c3ccccc3)CC2)CC1 | 68% (active)
Cc1ccccc1-n1c(C)cc(/C=C2\NC(=O)NC2=O)c1C | -0.336% (inactive)
CCN1CCN(c2ncc3c(n2)CC(c2ccccc2O)CC3=O)CC1 (centres undefined) | -0.199% (inactive)
CCOc1ccc(N(Cc2ccccc2)C(=O)c2nc(S(C)(=O)=O)ncc2Cl)cc1 | 10% (inactive)

Need activation for each of these compounds.
1. Cc1ccc(CNC(=O)c2cccc3c2C(=O)c2ccc(N4CCC(C)CC4)cc2S3(=O)=O)cc1
2. O=C(NCCCN1CCN(c2ccccc2F)CC1)C1CCC(=O)N1C1CCCCC1 (centres undefined)
3. CCCN(CCC)C(=O)C1CCCN(c2ncnc3c2nc2n3CCCCC2)C1 (centres undefined)
4. CC1CCN(c2c(NCc3ccc(C(=O)NCc4ccccc4)cc3)c(=O)c2=O)CC1
5. Cc1ccc(Nc2ccc3cc(S(=O)(=O)N4CCCCC4)ccc3n2)cc1F
6. COc1ccccc1NC(=O)CSc1oc(-c2ccco2)nc1S(=O)(=O)c1ccc(Br)cc1

1. 32% (active)
2. 68.8% (active)
3. 0.0903% (inactive)
4. -1.43% (inactive)
5. 0.936% (inactive)
6. -0.604% (inactive)

Here are 7 compounds. What values of activation were reported for them?
1. O=C(NCCCN1CCCCCC1)C1CC(=O)N(C2CCCC2)C1 (centres undefined)
2. COc1cccc(CNc2nccn(-c3ccc(OC)c(OC)c3)c2=O)c1
3. COc1ccc(CNC(=O)C(C)NCc2ccccc2Cl)cc1 (centres undefined)
4. O=C(COC(=O)CCc1ccc(S(=O)(=O)N2CCOCC2)cc1)Nc1cccc(Cl)c1
5. Cc1ccccc1NC(=O)c1cc2c([nH]c1=O)CC(C)(C)CC2=O
6. CCOc1ccccc1N(CC)C(=O)c1cc2ccc3cccnc3c2[nH]1
7. CN(C)C(=O)c1nc2ccc(Cl)cn2c1CN1CCN(c2ncccn2)CC1

1. 0.131% (inactive)
2. 0.433% (inactive)
3. -0.182% (inactive)
4. 1.09% (inactive)
5. 0.0984% (inactive)
6. 0.0244% (inactive)
7. 5.69% (inactive)

For every item in the list below, what is its measured activation?
1. COc1ccc(CN2CC(C(=O)NCCN3CCN(c4ccccc4F)CC3)CC2=O)cc1 (centres undefined)
2. Cc1ccc(OCCn2c(CNc3ccccc3C)nc3ccccc32)cc1
3. c1cnc(N2CCN(c3ccc4ccccc4n3)CC2)nc1
4. O=C(c1ccco1)N1CCN(Cc2cccc(C(F)(F)F)c2)CC1

["0.792% (inactive)", "0.246% (inactive)", "0.566% (inactive)", "59.9% (active)"]

# return activation for each item in the list
1. CCOC(=O)N1CCN(CCC(=O)Nc2ccccc2)CC1
2. CCCn1c2ccccc2c2cnn(CC(=O)N3CCCC(C(=O)OCC)C3)c(=O)c21 (centres undefined)
3. COc1cccc(NC(=O)c2ccc3nc(CCc4ccccc4)oc3c2)c1
4. COc1cc(C(=O)NCC(c2ccc(Cl)cc2)N2CCOCC2)cc(OC)c1OC (centres undefined)
5. CCSc1nnc2c(n1)OC(c1ccc(OCC(=O)O)cc1)Nc1ccccc1-2 (centres undefined)
6. CCN(C(=O)Cn1c(=O)nc(-c2ccccc2)c2cc(Cl)ccc21)c1cccc(C)c1
7. COc1ccc(S(=O)(=O)NCC(c2ccc(N(C)C)cc2)N2CCCC2)cc1 (centres undefined)
8. COc1ccccc1C(=O)Nc1c(C(=O)N(C)Cc2ccccc2)sc2nc(C)c(Cl)c(C)c12

1: 0.607% (inactive); 2: 0.474% (inactive); 3: 0.0569% (inactive); 4: -0.027% (inactive); 5: -0.918% (inactive); 6: 6.7% (inactive); 7: -2.12% (inactive); 8: 0.563% (inactive)

Reference source: PubChem BioAssay AID485358
